The values you see were collected from patent US12281102B2.

// values below are reported IC50
EXPERIMENTAL TARGET: T1, G1 APOL1 (Homo sapiens, UniProt O14791, I384M/S342G)
T1 construct: expressed in transfected cells
T1 sequence (O14791 28-398 S342G/I384M): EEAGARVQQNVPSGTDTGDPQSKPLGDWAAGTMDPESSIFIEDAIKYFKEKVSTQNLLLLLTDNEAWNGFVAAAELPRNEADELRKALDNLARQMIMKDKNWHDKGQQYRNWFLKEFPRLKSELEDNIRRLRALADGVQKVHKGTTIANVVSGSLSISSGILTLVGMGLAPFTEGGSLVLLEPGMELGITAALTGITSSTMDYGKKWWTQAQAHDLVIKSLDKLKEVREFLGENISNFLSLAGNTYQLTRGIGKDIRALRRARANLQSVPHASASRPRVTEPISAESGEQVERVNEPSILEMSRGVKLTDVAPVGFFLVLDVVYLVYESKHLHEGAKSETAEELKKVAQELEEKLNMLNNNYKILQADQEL
ASSAY OVERVIEW: Acute APOL1 Thallium Assay with inducible stable clones of HEK 293 cells
Format: cell-based
MEASUREMENT PARAMETERS: HEK 293 T-Rex inducible stable clone expressing G1 APOL1; read-out: Thallium Assay (IC50)
Text: Acute APOL1 Thallium Assay with Inducible Stable Clones of HEK 293 Cells Apolipoprotein L1 (APOL1) proteins form potassium-permeable cation pores in the plasma membrane. APOL1 risk variants (G1 and G2) induce greater potassium flux than G0 in HEK293 cells. […] The increase of fluorescence in the assay represents the influx of T1+ into the cell specifically through the potassium channel (i.e. through APOL1 pores), providing a functional measurement of potassium channel/pore activity. […]

Check out these entries, answers already filled in.
Would you kindly share the measured IC50 for NS(=O)(=O)NC[C@H]1C[C@H](c2c(-c3ccc(F)cc3)[nH]c3c(F)cc(F)cc32)C1 ?
< 0.25 µM

Also OC1CC(NCC2CC(c3c(-c4ccc(F)cc4)[nH]c4c(F)cc(F)cc34)C2)C1 (stereo not shown) ?
0.25 to 1 µM

Also CC(CC(=O)N[C@H]1C[C@@H](c2c(-c3ccc(F)cc3)[nH]c3c(F)cc(F)cc32)C1)N1CCOCC1 (mixture of isomers) ?
> 1 µM

Further cases:
Would you kindly share the measured IC50 for O=C(CCO)NC[C@H]1C[C@@H](c2c(-c3ccc(F)cc3)[nH]c3c(F)cc(F)cc32)C1 ?
0.25 to 1 µM

Also CN1CCC(CC(=O)N[C@H]2C[C@H](c3c(-c4ccc(F)cc4)[nH]c4c(F)cc(F)cc43)C2)CC1 ?
> 1 µM

Also NC(=O)CC(=O)NC[C@H]1C[C@H](c2c(-c3ccc(F)cc3)[nH]c3c(F)cc(F)cc32)C1 ?
0.25 to 1 µM

Also CCCS(=O)(=O)N[C@H]1C[C@@H](c2c(-c3ccc(F)cc3)[nH]c3c(F)cc(F)cc32)C1 ?
> 1 µM

###

EXPERIMENTAL TARGET: G1 APOL1 (Homo sapiens, UniProt O14791, I384M/S342G)
Construct: expressed in transfected cells
ASSAY OVERVIEW: Acute APOL1 Thallium Assay with inducible stable clones of HEK 293 cells
Assay type: cell-based
MEASUREMENT PARAMETERS: HEK 293 T-Rex inducible stable clone expressing G1 APOL1; read-out: Thallium Assay (IC50)
pIC50: −log10 of the molar value.
METRIC NAME: pIC50

Check out these entries, answers already filled in.
Would you kindly share the measured pIC50 for CC(C)C(CO)NCC1CC(c2c(-c3ccc(F)cc3)[nH]c3c(F)cc(F)cc23)C1 (centres unmarked) [Compound 402] ?
< 6.00

Also O=C(NC[C@H]1C[C@H](c2c(-c3ccc(F)cc3)[nH]c3c(F)cc(F)cc32)C1)C1CC(F)(F)CN1 (some centres unmarked) [Compound 223] ?
6.00 to 6.60

Also N[C@H](CO)C(=O)NC[C@H]1C[C@H](c2c(-c3ccc(F)cc3)[nH]c3c(F)cc(F)cc32)C1 [Compound 201] ?
> 6.60

Also O=C(NC[C@H]1C[C@H](c2c(-c3ccc(F)cc3)[nH]c3c(F)cc(F)cc32)C1)[C@@H]1CCN1 [Compound 198] ?
> 6.60

Also N#CCS(=O)(=O)NC[C@H]1C[C@H](c2c(-c3ccc(F)cc3)[nH]c3c(F)cc(F)cc32)C1 [Compound 414] ?
6.00 to 6.60

Also O=C(NC[C@H]1C[C@H](c2c(-c3ccc(F)cc3)[nH]c3c(F)cc(F)cc32)C1)c1ccn[nH]c1=O [Compound 312] ?
< 6.00

Also O=C(N[C@H]1C[C@H](c2c(-c3ccc(F)cc3)[nH]c3c(F)cc(F)cc32)C1)C1COC1 [Compound 131] ?
6.00 to 6.60

Also COCCC(=O)NC[C@H]1C[C@@H](c2c(-c3ccc(F)cc3)[nH]c3c(F)cc(F)cc32)C1 [Compound 209] ?
6.00 to 6.60

Also CC(=O)N[C@H](C)C(=O)NC[C@H]1C[C@H](c2c(-c3ccc(F)cc3)[nH]c3c(F)cc(F)cc32)C1 [Compound 204] ?
> 6.60

Also O=C(CN1CCCC1)NC[C@H]1C[C@@H](c2c(-c3ccc(F)cc3)[nH]c3c(F)cc(F)cc32)C1 [Compound 327] ?
< 6.00

Further cases:
Would you kindly share the measured pIC50 for CC(=O)N1CCC(Cc2c(-c3ccc(F)cc3)[nH]c3c(F)cc(F)cc23)C1 (centres unmarked) [Compound 444] ?
< 6.00

###

EXPERIMENTAL TARGET: T1, G1 APOL1 (Homo sapiens, UniProt O14791, I384M/S342G)
T1 construct: expressed in transfected cells
ASSAY OVERVIEW: Acute APOL1 Thallium Assay with inducible stable clones of HEK 293 cells
Type: cell-based
MEASUREMENT PARAMETERS: HEK 293 T-Rex inducible stable clone expressing G1 APOL1; read-out: Thallium Assay (IC50)
Text: Acute APOL1 Thallium Assay with Inducible Stable Clones of HEK 293 Cells Apolipoprotein L1 (APOL1) proteins form potassium-permeable cation pores in the plasma membrane. APOL1 risk variants (G1 and G2) induce greater potassium flux than G0 in HEK293 cells. […] The increase of fluorescence in the assay represents the influx of T1+ into the cell specifically through the potassium channel (i.e. through APOL1 pores), providing a functional measurement of potassium channel/pore activity. […]
METRIC NAME: IC50

Check out these entries, answers already filled in.
Lab request: please report IC50 under test system T1, G1 APOL1 (Homo sapiens, UniProt O14791, I384M/S342G) for O=C1CC(C(=O)NC2CC(Cc3c(-c4ccc(F)cc4)[nH]c4c(F)cc(F)cc34)C2)C(=O)N1 (centres unmarked) [Compound 167]
> 1000 nM

Also C[C@H](CO)NCC1CC(c2c(-c3ccc(F)cc3)[nH]c3c(F)cc(F)cc23)C1 (some centres unmarked) [Compound 394] ?
> 1000 nM

Also CC(CO)(CO)NS(=O)(=O)NC[C@H]1C[C@H](c2c(-c3ccc(F)cc3)[nH]c3c(F)cc(F)cc32)C1 [Compound 365] ?
> 1000 nM

Also Fc1ccc(-c2[nH]c3c(F)cc(F)cc3c2CC2CNC2)cc1 [Compound 436] ?
< 250 nM

Also N[C@@H](CO)C(=O)NC[C@H]1C[C@H](c2c(-c3ccc(F)cc3)[nH]c3c(F)cc(F)cc32)C1 [Compound 194] ?
< 250 nM

Could you now consider this next compound?
Lab request: please report IC50 under test system T1, G1 APOL1 (Homo sapiens, UniProt O14791, I384M/S342G) for CC(F)(F)C(=O)N[C@H]1C[C@H](c2c(-c3ccc(F)cc3)[nH]c3c(F)cc(F)cc32)C1 [Compound 130]
250 to 1000 nM

###

EXPERIMENTAL TARGET: G1 APOL1 (Homo sapiens, UniProt O14791, I384M/S342G)
Construct: expressed in transfected cells
ASSAY OVERVIEW: Acute APOL1 Thallium Assay with inducible stable clones of HEK 293 cells
Assay type: cell-based
MEASUREMENT PARAMETERS: HEK 293 T-Rex inducible stable clone expressing G1 APOL1; read-out: Thallium Assay (IC50)
METRIC NAME: IC50

Check out these entries, answers already filled in.
Would you kindly share the measured IC50 for O=c1ccc2cc(S(=O)(=O)NC[C@H]3C[C@H](c4c(-c5ccc(F)cc5)[nH]c5c(F)cc(F)cc54)C3)ccc2[nH]1 [Compound 417] ?
> 1000 nM

Also O=C(CO)NC1CC(c2c(-c3ccc(F)cc3)[nH]c3c(F)cc(F)cc23)C1 (stereo not drawn) [Compound 15] ?
< 250 nM

Further cases:
Would you kindly share the measured IC50 for O=C1NCCC1NCC1CC(c2c(-c3ccc(F)cc3)[nH]c3c(F)cc(F)cc23)C1 (stereo not drawn) [Compound 386] ?
250 to 1000 nM

Also C[C@H](N)C(=O)NC[C@H]1C[C@H](c2c(-c3ccc(F)cc3)[nH]c3c(F)cc(F)cc32)C1 [Compound 189] ?
< 250 nM

Also O=C(CC(=O)N1CCOCC1)N[C@H]1C[C@H](c2c(-c3ccc(F)cc3)[nH]c3c(F)cc(F)cc32)C1 [Compound 120] ?
> 1000 nM

Also NC1CC(c2c(-c3ccc(C4CC4)cc3)[nH]c3ccc(F)cc23)C1 (stereo not drawn) [Compound 7] ?
250 to 1000 nM

Also N#CCC(=O)N[C@H]1C[C@H](c2c(-c3ccc(F)cc3)[nH]c3c(F)cc(F)cc32)C1 [Compound 129] ?
< 250 nM

Also CC(F)(F)C(=O)NC[C@H]1C[C@@H](c2c(-c3ccc(F)cc3)[nH]c3c(F)cc(F)cc32)C1 [Compound 266] ?
> 1000 nM

Also O=C(CC1(O)CCCCC1)N[C@H]1C[C@H](c2c(-c3ccc(F)cc3)[nH]c3c(F)cc(F)cc32)C1 [Compound 113] ?
> 1000 nM

Also NC1CC(c2c(-c3ccc(OC(F)(F)F)cc3)[nH]c3c(F)cc(F)cc23)C1 (stereo not drawn) [Compound 8] ?
250 to 1000 nM

Also CC1(C)CCC(C(=O)N[C@H]2C[C@H](c3c(-c4ccc(F)cc4)[nH]c4c(F)cc(F)cc43)C2)N1 (stereo partly drawn) [Compound 127] ?
> 1000 nM

Also NC(=O)CC(=O)NC1CC(Cc2c(-c3ccc(F)cc3)[nH]c3c(F)cc(F)cc23)C1 (stereo not drawn) [Compound 165] ?
> 1000 nM

Also O=C(NC[C@H]1C[C@H](c2c(-c3ccc(F)cc3)[nH]c3c(F)cc(F)cc32)C1)C1CCO1 (stereo partly drawn) [Compound 192] ?
< 250 nM

Also Cn1nccc1CC(=O)NC[C@H]1C[C@@H](c2c(-c3ccc(F)cc3)[nH]c3c(F)cc(F)cc32)C1 [Compound 322] ?
> 1000 nM

Also CC1(CN)CC(c2c(-c3ccc(F)cc3)[nH]c3c(F)cc(F)cc23)C1 (stereo not drawn) [Compound 426] ?
250 to 1000 nM
